Form field: viability, T/C (one value per entry).
System: 156681-154-R-J1 tumor spheroid viability
Experiment: Anticancer human tumor 156681-154-R-J1 patient-derived melanoma cell line growth inhibition
Details: second compound 0.000949 µM; first compound 10 µM; active compounds read low; spheroids with HUVEC and MSC

{"Compound": "CC1COCCN1c1cc(-c2ccnn2C)c2ccnc(-c3ccn[nH]3)c2n1 (stereo unspecified) + COc1cc2c(cc1O)CCNC21CSC2c3c(OC(C)=O)c(C)c4c(c3C(COC1=O)N1C(O)C3Cc5cc(C)c(OC)c(O)c5C(C21)N3C)OCO4", "viability, T/C / %": 0.17}
{"Compound": "Cc1cc(C)c(CNC(=O)c2cc(-c3ccc(CN4CCOCC4)cc3)cc3c2cnn3C2CCCC2)c(=O)[nH]1 + COc1cc2c(cc1O)CCNC21CSC2c3c(OC(C)=O)c(C)c4c(c3C(COC1=O)N1C(O)C3Cc5cc(C)c(OC)c(O)c5C(C21)N3C)OCO4", "viability, T/C / %": 1.36}
{"Compound": "COc1cc(C)[nH]c(=O)c1CN1CCc2c(Cl)cc(C(OC)C3COC3)c(Cl)c2C1=O (stereo unspecified) + COc1cc2c(cc1O)CCNC21CSC2c3c(OC(C)=O)c(C)c4c(c3C(COC1=O)N1C(O)C3Cc5cc(C)c(OC)c(O)c5C(C21)N3C)OCO4", "viability, T/C / %": 2.93}
{"Compound": "[2H]c1nc(C)nc([2H])c1-c1cc(NC[C@@H](C)c2cccc3c(C(=O)NC)ccnc23)ncn1 + COc1cc2c(cc1O)CCNC21CSC2c3c(OC(C)=O)c(C)c4c(c3C(COC1=O)N1C(O)C3Cc5cc(C)c(OC)c(O)c5C(C21)N3C)OCO4", "viability, T/C / %": 3.23}
{"Compound": "CC(C)n1c(=O)n(C)c2cnc3cc(F)c(-c4ccc(OCCCN5CCCCC5)nc4)cc3c21 + COc1cc2c(cc1O)CCNC21CSC2c3c(OC(C)=O)c(C)c4c(c3C(COC1=O)N1C(O)C3Cc5cc(C)c(OC)c(O)c5C(C21)N3C)OCO4", "viability, T/C / %": 0.77}
{"Compound": "COc1ccc([C@@H](O)c2cc(-c3ncnc4cc(N5CCOCC5)ccc34)c(F)cc2Cl)nn1 + COc1cc2c(cc1O)CCNC21CSC2c3c(OC(C)=O)c(C)c4c(c3C(COC1=O)N1C(O)C3Cc5cc(C)c(OC)c(O)c5C(C21)N3C)OCO4", "viability, T/C / %": 0.18}

---

Tested on: 156681-154-R-J1 tumor spheroid viability
Test: Anticancer human tumor 156681-154-R-J1 cell line growth inhibition;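 note: spheroids exposed to compounds for 7 days before readout; percent of vehicle control viability where 100% = DMSO-treated spheroids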
Conditions: second compound 3.16 µM; first compound 0.0316 µM; active compounds read low; spheroids with HUVEC and MSC
Rule for this label: condition met means viability, T/C is less than 90%; condition not met means viability, T/C is at least 90%.

{"Compound": "COc1cc(C)[nH]c(=O)c1CN1CCc2c(Cl)cc(C(OC)C3COC3)c(Cl)c2C1=O (stereo unspecified) + Cn1nnc2c(C(N)=O)ncn2c1=O", "Assigned Category": "condition not met"}
{"Compound": "CC1COCCN1c1cc(-c2ccnn2C)c2ccnc(-c3ccn[nH]3)c2n1 (stereo unspecified) + Cn1nnc2c(C(N)=O)ncn2c1=O", "Assigned Category": "condition met"}
{"Compound": "CC(C)n1c(=O)n(C)c2cnc3cc(F)c(-c4ccc(OCCCN5CCCCC5)nc4)cc3c21 + Cn1nnc2c(C(N)=O)ncn2c1=O", "Assigned Category": "condition met"}
{"Compound": "COc1ccc([C@@H](O)c2cc(-c3ncnc4cc(N5CCOCC5)ccc34)c(F)cc2Cl)nn1 + Cn1nnc2c(C(N)=O)ncn2c1=O", "Assigned Category": "condition not met"}
{"Compound": "[2H]c1nc(C)nc([2H])c1-c1cc(NC[C@@H](C)c2cccc3c(C(=O)NC)ccnc23)ncn1 + Cn1nnc2c(C(N)=O)ncn2c1=O", "Assigned Category": "condition met"}
